- Measurement Description: Reported Cmax in blood at doses used in prior clinical trials
- Type: in vivo
- Setup Conditions: human, 0.5 mg dose, read-out: Converted (M) Cmax
Observed Property: Cmax (M)
One number for each entry, in M.

Query: Given the entry "Oc1ccc2c(c1)CC[C@H](c1ccccc1)[C@@H]2c1ccc(OCCN2CCCC2)cc1" , report its measured Cmax.
Response: 9e-09

----------
- Measurement Description: Reported Cmax in blood at doses used in prior clinical trials
- Type: in vivo
- Setup Conditions: human, 1 mg dose, read-out: Converted (M) Cmax
Observed Property: Cmax (M)
Answers are plain numbers, in M.

Query: Given the entry "Oc1ccc2c(c1)CC[C@H](c1ccccc1)[C@@H]2c1ccc(OCCN2CCCC2)cc1" , report its measured Cmax.
Response: 1.55e-08
